# System: SK-MEL-28 melanoma
# RUN_DESCRIPTION: NCI tumour cell line growth inhibition, 48 h
OUTCOME_MEASURE: GI50

STRUCTURE_NOTATION	EXPERIMENTAL_SYSTEM	RESULT
Cc1cc(C2CCCCC2)n(O)c(=O)c1	SK-MEL-28 melanoma	4.07 µM
CC(C)(C)OC(=O)N(CCCN(CCn1c2c(c3ccccc3c1=O)C(=O)c1ccccc1-2)C(=O)OC(C)(C)C)CCn1c2c(c3ccccc3c1=O)C(=O)c1ccccc1-2	SK-MEL-28 melanoma	> 50 µM
O=C(C[C@@H](C(=O)NCc1cccc(C(F)(F)F)c1)N1C(=O)[C@@H](N2C(=O)OC[C@@H]2c2ccccc2)[C@H]1/C=C/c1ccccc1)NC1CCN(Cc2ccccc2)CC1	SK-MEL-28 melanoma	2.19 µM

Next compound, please.
Reported GI50 for SK-MEL-28 melanoma, given "COc1cc2c(/C=C3/C(=O)Nc4cccc(Cl)c43)c(Cl)n(Cc3ccccc3)c2cc1C" ? 4.98 µM
